meta.source: BigSolDB 2.1

Conditions: in acetone, 318.15 K
Quantity Kind: solubility (mole fraction)
Numbers only.

Please supply the value of reported solubility (mole fraction) for the item O=[N+]([O-])c1ccc(S(=O)(=O)[O-])cc1.[Na+]
0.029

* * *

Conditions: in cyclohexanone, 303.15 K
Quantity Kind: solubility (mole fraction)
Answers are plain numbers.

Please supply the value of reported solubility (mole fraction) for the item O=[N+]([O-])c1ccc(S(=O)(=O)[O-])cc1.[Na+]
0.000938

* * *

Details: in acetone, 323.15 K
Quantity Kind: solubility (mole fraction)
Numbers only.

Please supply the value of reported solubility (mole fraction) for the item O=[N+]([O-])c1ccc(S(=O)(=O)[O-])cc1.[Na+]
0.0323
